System: arginase II (ARG II) (Homo sapiens, UniProt P78540)
Sequence (P78540 23-354): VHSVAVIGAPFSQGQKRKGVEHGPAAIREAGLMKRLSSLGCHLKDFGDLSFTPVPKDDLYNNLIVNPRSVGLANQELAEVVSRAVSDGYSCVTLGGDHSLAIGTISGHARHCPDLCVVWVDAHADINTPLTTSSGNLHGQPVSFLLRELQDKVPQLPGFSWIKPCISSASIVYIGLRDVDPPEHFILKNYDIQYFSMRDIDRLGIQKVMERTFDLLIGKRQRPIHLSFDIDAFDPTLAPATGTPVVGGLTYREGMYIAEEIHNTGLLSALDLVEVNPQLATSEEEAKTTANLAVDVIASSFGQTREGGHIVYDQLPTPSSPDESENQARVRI
Assay overview: Inhibition of arginase II, spectrophotometric urea assay at 530 nm
Assay type: biochemical
Study conditions: Formula I compounds, Table 2; read-out: Potency (ARG II)
Structures can show the parent of a compound that is named as a salt.
Attribute measured: IC50

Any idea what its IC50 is? The compound is C[C@H](CO)NCCC(N)(CCCCB(O)O)C(=O)O (stereo partly drawn) 2000 to 5000 nM

// repeat for NC(CCCCB(O)O)(CCN1CCC(C(F)(F)F)CC1)C(=O)O (stereo not drawn) [compound 39, dihydrochloride] and report 2000 to 5000 nM

// repeat for NC(CCCCB(O)O)(Cc1ccccc1)C(=O)O (stereo not drawn) [compound 99, hydrochloride] and report > 5000 nM

// repeat for NC(CCCCB(O)O)(CCN1CCC(C(=O)O)CC1)C(=O)O (stereo not drawn) and report 1000 to 2000 nM

// repeat for NC(CCCCB(O)O)(CCN1CCCC1c1cc2ccccc2o1)C(=O)O (stereo not drawn) [compound 42, dihydrochloride] and report 2000 to 5000 nM

// repeat for CC(N)(CCCCB(O)O)C(=O)O (stereo not drawn) [compound 97, hydrochloride] and report > 5000 nM

// repeat for NC(CCCCB(O)O)(CCN1CCC(F)(F)C1)C(=O)O (stereo not drawn) [compound 44, dihydrochloride] and report > 5000 nM

// repeat for NC(CCCCB(O)O)(C(=O)O)C(O)C1CCNCC1 (stereo not drawn) [compound 109, dihydrochloride] and report > 5000 nM

// repeat for NC(CCCCB(O)O)(Cc1cccc(F)c1)C(=O)O (stereo not drawn) [compound 98, hydrochloride] and report > 5000 nM

// repeat for C=CCC(N)(CCCCB(O)O)C(=O)O (stereo not drawn) and report > 5000 nM

// repeat for CN(CCC(N)(CCCCB(O)O)C(=O)O)CC(=O)O (stereo not drawn) [compound 18, dihydrochloride] and report 2000 to 5000 nM

// repeat for C[C@H](NCC(N)(CCCCB(O)O)C(=O)O)c1ccccc1 (stereo partly drawn) [compound 90, dihydrochloride] and report 2000 to 5000 nM

// repeat for NC(CCCCB(O)O)(CCN1CCOCC1)C(=O)O (stereo not drawn) and report 2000 to 5000 nM

// repeat for CNC(CCCCB(O)O)(CCCN1CCCC1)C(=O)O (stereo not drawn) [compound 137, dihydrochloride] and report 0.1 to 250 nM

// repeat for NC(CCCCB(O)O)(CCN1CCc2[nH][nH]c(=O)c2C1)C(=O)O (stereo not drawn) [compound 30, dihydrochloride] and report 1000 to 2000 nM

// repeat for NC(CCCCB(O)O)(CC(=O)O)C(=O)O (stereo not drawn) [compound 106, hydrochloride] and report > 5000 nM

// repeat for NC(CCCCB(O)O)(CCC1Cc2ccccc2CN1CC1CCCCC1)C(=O)O (stereo not drawn) [compound 134, dihydrochloride] and report 251 to 1000 nM

// repeat for NC(CCCCB(O)O)(CCN1CCC(Cc2ccccc2)CC1)C(=O)O (stereo not drawn) [compound 125, dihydrochloride] and report 251 to 1000 nM

// repeat for NC(CCCCB(O)O)(C(=O)O)C(O)c1cccnc1 (stereo not drawn) [compound 112, dihydrochloride] and report 2000 to 5000 nM

// repeat for NC(CCCCB(O)O)(CCNC(=S)Nc1ccc(Cl)c(Cl)c1)C(=O)O (stereo not drawn) [compound 119, hydrochloride] and report 1000 to 2000 nM

// repeat for CC(C)C(N)(CCCCB(O)O)C(=O)O (stereo not drawn) [compound 105, hydrochloride] and report > 5000 nM

// repeat for NC(CCCCB(O)O)(CCOc1ccc(Cl)cc1Cl)C(=O)O (stereo not drawn) [compound 94, hydrochloride] and report > 5000 nM

// repeat for C[C@@H](O)CNCC(N)(CCCCB(O)O)C(=O)O (stereo partly drawn) [compound 85, dihydrochloride] and report 2000 to 5000 nM

// repeat for NC(CCCCB(O)O)(CNC1CCOCC1)C(=O)O (stereo not drawn) [compound 87, dihydrochloride] and report 1000 to 2000 nM

// repeat for NC(CCCCB(O)O)(CCCNCc1ccc(Cl)c(Cl)c1)C(=O)O (stereo not drawn) [compound 141, dihydrochloride] and report 0.1 to 250 nM

// repeat for NCCN(CCN)CCC(N)(CCCCB(O)O)C(=O)O (stereo not drawn) and report 2000 to 5000 nM

// repeat for COCCN1CCN(CCC(N)(CCCCB(O)O)C(=O)O)CC1 (stereo not drawn) [compound 77, trihydrochloride] and report > 5000 nM

// repeat for CN(C)CCN(C)CCC(N)(CCCCB(O)O)C(=O)O (stereo not drawn) [compound 71, trihydrochloride] and report 2000 to 5000 nM

// repeat for NC(CCCCB(O)O)(CC1CN(Cc2ccc(Cl)c(Cl)c2)C1)C(=O)O (stereo not drawn) [compound 117, dihydrochloride] and report 2000 to 5000 nM

// repeat for NC(CCCCB(O)O)(CCN1CCC(Cc2ccc(Cl)cc2)CC1)C(=O)O (stereo not drawn) [compound 122, dihydrochloride] and report 251 to 1000 nM

// repeat for CN1CCCN(CCC(N)(CCCCB(O)O)C(=O)O)CC1 (stereo not drawn) [compound 49, dihydrochloride] and report 2000 to 5000 nM

// repeat for NC(CCCCB(O)O)(CCN1CCC(Cc2ccc(C(F)(F)F)cc2)CC1)C(=O)O (stereo not drawn) [compound 126, dihydrochloride] and report 251 to 1000 nM

// repeat for CCCC1CCN(CCC(N)(CCCCB(O)O)C(=O)O)CC1 (stereo not drawn) [compound 129, dihydrochloride] and report 1000 to 2000 nM
